Target: HPK1 (SLP76 phosphorylation at Ser376 in Jurkat and EL-4 cells) (Homo sapiens, UniProt Q92918)
Sequence (Q92918 whole entry, looked up): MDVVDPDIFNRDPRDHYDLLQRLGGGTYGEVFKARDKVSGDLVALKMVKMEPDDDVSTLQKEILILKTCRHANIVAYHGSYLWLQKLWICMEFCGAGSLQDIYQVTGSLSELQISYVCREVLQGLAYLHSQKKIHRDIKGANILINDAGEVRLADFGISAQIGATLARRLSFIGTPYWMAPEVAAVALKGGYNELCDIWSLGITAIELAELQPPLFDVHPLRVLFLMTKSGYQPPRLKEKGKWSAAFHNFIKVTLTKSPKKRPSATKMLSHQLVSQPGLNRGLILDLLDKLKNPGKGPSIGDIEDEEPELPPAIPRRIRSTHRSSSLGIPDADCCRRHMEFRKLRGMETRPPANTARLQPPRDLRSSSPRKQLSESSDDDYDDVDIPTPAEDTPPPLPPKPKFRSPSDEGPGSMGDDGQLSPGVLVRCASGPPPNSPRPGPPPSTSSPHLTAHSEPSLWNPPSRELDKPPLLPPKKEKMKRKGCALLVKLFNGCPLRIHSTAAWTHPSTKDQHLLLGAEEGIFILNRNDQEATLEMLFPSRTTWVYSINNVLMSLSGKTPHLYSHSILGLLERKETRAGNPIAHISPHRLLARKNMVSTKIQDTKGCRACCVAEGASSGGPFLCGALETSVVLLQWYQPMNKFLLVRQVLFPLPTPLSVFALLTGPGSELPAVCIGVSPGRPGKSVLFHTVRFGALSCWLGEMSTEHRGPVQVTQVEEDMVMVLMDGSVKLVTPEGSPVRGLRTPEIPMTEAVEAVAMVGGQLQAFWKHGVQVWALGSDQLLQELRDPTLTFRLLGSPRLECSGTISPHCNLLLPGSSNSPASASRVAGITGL
Assay type: cell-based
Settings: read-out: HPK1 pSLP76 IC50; αCD3/αCD28 Dynabeads stimulated cells, pSLP76 (Ser376) detection

{"columns": ["item-smiles", "IC50"],
 "data": [
  ["Cc1c(N2CCc3cnc(Nc4cccc(N5CCN(C)CC5)c4)nc3C2)cnc2c1NCCO2", "500 to 1000 nM"],
  ["Cc1c(N2CCc3cnc(Nc4ccc(CS(C)(=O)=O)cc4)nc3C2)cnc2nc[nH]c12", "500 to 1000 nM"],
  ["Cc1c(N2CCc3cnc(Nc4ccc(NC(=O)CN(C)C)nc4)nc3C2)cnc2c1NCCO2", "< 500 nM"],
  ["Cc1c(N2CCc3cnc(Nc4ccc(OCCN5CCOCC5)cc4)nc3C2)cnc2c1NCCO2", "500 to 1000 nM"]
]}

* * *

Target: HPK1 (SLP76 phosphorylation at Ser376 in Jurkat and EL-4 cells) (Homo sapiens, UniProt Q92918)
Type: cell-based
Conditions: αCD3/αCD28 Dynabeads stimulated cells, pSLP76 (Ser376) detection; read-out: HPK1 pSLP76 IC50
pIC50: −log10 of the molar value.
Property: pIC50; scope: individual compounds

{"columns": ["item-smiles", "pIC50"],
 "data": [
  ["Cc1c(N2CCc3cnc(Nc4ccc5c(c4)CN(C)C5)cc3C2)cnc2c1NCCO2", "6.00 to 6.30"],
  ["Cc1c(N2CCc3cnc(Nc4ccc(CS(C)(=O)=O)nc4)cc3C2)cnc2c1NCCO2", "6.00 to 6.30"],
  ["Cc1c(N2CCc3cnc(Nc4ccnc(N5CCN(C)CC5)c4)nc3C2)cnc2c1NCCO2", "> 6.30"],
  ["CNCc1cccc(Nc2ncc3c(n2)CN(c2cnc4c(c2C)NCCO4)CC3)c1", "6.00 to 6.30"],
  ["Cc1c(N2CCc3cnc(Nc4cnc(CS(C)(=O)=O)c(Cl)c4)nc3C2)cnc2c1NCCO2", "< 6.00"],
  ["COC1CN(C(=O)Cc2ccc(Nc3ncc4c(n3)CN(c3cnc5c(c3C)NCCO5)CC4)cc2)C1", "> 6.30"],
  ["COCC1CN(C(=O)Cc2ccc(Nc3ncc4c(n3)CN(c3cnc5c(c3C)NCCO5)CC4)cc2)C1", "> 6.30"],
  ["Cc1c(N2CCc3cnc(Nc4ccc5c(c4)CCOC5)nc3C2)cnc2c1NCCO2", "> 6.30"],
  ["Cc1c(N2CCc3cnc(Nc4ccc5c(c4)COC5)nc3C2)cnc2c1NCCO2", "6.00 to 6.30"],
  ["Cc1c(N2CCc3cnc(Nc4ccc(OCS(C)(=O)=O)cc4)nc3C2)cnc2c1NCCO2", "> 6.30"]
]}

* * *

Biological target: HPK1 (SLP76 phosphorylation at Ser376 in Jurkat and EL-4 cells) (Homo sapiens, UniProt Q92918)
Type: cell-based
Settings: αCD3/αCD28 Dynabeads stimulated cells, pSLP76 (Ser376) detection; read-out: HPK1 pSLP76 IC50
Protocol: Cellular Assay—Phospho-SLP-76 (Ser376). Inhibition of HPK1 enzymatic activity in cells was determined by detection of SLP76 phosphorylation at Ser376 residue in lysate from Jurkat (human) and EL-4 (mouse) cells. Jurkat and EL-4 cells express both HPK1 and SLP76 naturally. […] For detection, plates were read on the Envision and percent inhibition and IC50 were determined by Smart fit in Genedata Analyzer. […]
pIC50: −log10 of the molar value.

{"columns": ["item-smiles", "pIC50"],
 "data": [
  ["Cc1c(N2CCc3cnc(Nc4ccc(NCCN5CCOCC5)c(F)c4)nc3C2)cnc2c1NCCO2", "> 6.30"],
  ["Cc1c(N2CCc3cnc(Nc4ccc(Cn5cccn5)cc4)nc3C2)cnc2c1NCCO2", "> 6.30"],
  ["Cc1cc(Nc2cc3c(cn2)CCN(c2cnc4c(c2C)NCCO4)C3)ccc1NC(=O)CN(C)C", "< 6.00"]
]}
